Biological target: T1, Spy (wild type) (E. coli, UniProt P77754 24-161)
T1 construct: N-terminal serine introduced from the Sumo fusion construct used for purification; numbers count on: the mature protein; construct as in Quan et al., 2011; also called WT; wild-type Spy; source: purified from a Sumo fusion construct (Quan et al., 2011); not shown: SUMO, N-terminal, cleaved (from the N-terminal serine left on the protein)
T1 sequence: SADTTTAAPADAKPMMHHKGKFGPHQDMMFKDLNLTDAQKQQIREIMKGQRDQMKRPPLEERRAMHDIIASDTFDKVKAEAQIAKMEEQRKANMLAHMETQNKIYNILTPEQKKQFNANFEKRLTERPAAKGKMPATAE
Assay: BLI; biotinylated Im7 L53A I54A immobilised on streptavidin sensors (Octet RED); Spy variants at 2, 1, 0.5, 0.25 and 0.125 µM; 25°C; 40 mM HEPES, 150 mM NaCl, pH 7.5; 1:1 binding model, KD = koff/kon; apparent
Settings: both partners purified
pKd: −log10 of the molar value.
Metric name: pKd

Binder	Recorded result
Biotinylated Im7 L53A I54A (natural protein, biotin (EZ-link NHS-biotin at 1:1 molar ratio; site not stated), N-terminal serine from the Sumo fusion construct; the footnote says it of Im7 purification in general; immunity protein 7 (Im7), colicin E7 immunity protein; Same protein as m10 with biotin; held on streptavidin sensors; also called biotin-conjugated Im7 L53A I54A; immunity protein 7 L53A I54A; source: purified from a Sumo fusion construct (Quan et al., 2011), biotinylated with EZ-link …) SMELKNSISDYTEAEFVQLLKEIEKENVAATDDVLDVLLEHFVKITEHPDGTDAAYYPSDNRDDSPEGIVKEIKEWRAANGKPGFKQG	5.94
